Target: UniProt O76083
Sequence (O76083 whole entry): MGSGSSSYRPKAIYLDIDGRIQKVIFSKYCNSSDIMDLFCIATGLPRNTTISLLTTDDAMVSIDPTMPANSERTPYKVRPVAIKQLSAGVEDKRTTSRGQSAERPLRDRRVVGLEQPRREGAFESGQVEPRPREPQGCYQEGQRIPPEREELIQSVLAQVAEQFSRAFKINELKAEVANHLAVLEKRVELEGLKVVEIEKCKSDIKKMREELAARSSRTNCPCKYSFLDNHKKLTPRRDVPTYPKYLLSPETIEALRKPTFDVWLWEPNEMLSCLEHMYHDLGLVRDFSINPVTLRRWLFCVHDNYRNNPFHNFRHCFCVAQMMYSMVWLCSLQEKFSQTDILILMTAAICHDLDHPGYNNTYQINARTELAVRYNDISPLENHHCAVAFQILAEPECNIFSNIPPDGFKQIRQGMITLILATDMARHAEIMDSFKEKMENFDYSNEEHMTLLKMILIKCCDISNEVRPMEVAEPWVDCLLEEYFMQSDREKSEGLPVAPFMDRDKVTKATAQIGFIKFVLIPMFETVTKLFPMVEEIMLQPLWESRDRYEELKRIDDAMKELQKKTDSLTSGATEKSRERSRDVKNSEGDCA
Experiment: PDE9 inhibition assay
Type: biochemical
Experimental: Reactions are initiated by addition of the cyclic nucleotide substrate, and reactions are allowed to proceed for one hr at room temperature before being terminated through mixing with 15 uL 8 mg/mL yttrium silicate SPA beads (Amersham). […] IC50 values were calculated by non linear regression using XLfit (IDBS).
Rule: measured IC50 below 20 nM gets Condition met; anything equal to or greater than 20 nM gets Condition not met.

Dear colleague, could you confirm whether IC50 of CC(c1cn2c(-c3ccccc3)ncc2c(=O)[nH]1)N1CC(c2ccccc2)C1 (stereo not drawn) falls below 20 nM? Thanks.
Condition not met

// next record `N#Cc1ccc(C2CN(Cc3cn4c(-c5ccc(F)cc5)ncc4c(=O)[nH]3)C2)cc1`
Condition met

// next record CC(c1cn2c(C3CCCC3)ncc2c(=O)[nH]1)N1CC(c2ccc(N(C)C)cc2)C1 (stereo not drawn)
Condition not met

// next record `O=c1[nH]c(CN2CC(c3ccc(F)cc3)C2)cn2c(-c3ccccc3)ncc12`
Condition not met

// next record `O=c1[nH]c(CN2CC(Oc3cccnc3)C2)cn2c(-c3ccc(F)cc3)ncc12`
Condition met

// next record `O=c1[nH]c(CN2CC(Oc3ccccc3F)C2)cn2c(C3CCOCC3)ncc12`
Condition not met

This collection of values is drawn from patent US9643970B2.
